study_system: T1, human TIGIT on Jurkat cells (TIGIT/NFAT reporter Jurkat cells, BPS Bioscience #60538); Promega TIGIT Effector … (human, UniProt Q495A1 22-244)
T1 construct: whole, on cells; Same protein on two bought Jurkat lines (flow cytometry: BPS; bioassay: Promega); also called hu TIGIT cells; cells expressing human TIGIT
T1 sequence (looked up): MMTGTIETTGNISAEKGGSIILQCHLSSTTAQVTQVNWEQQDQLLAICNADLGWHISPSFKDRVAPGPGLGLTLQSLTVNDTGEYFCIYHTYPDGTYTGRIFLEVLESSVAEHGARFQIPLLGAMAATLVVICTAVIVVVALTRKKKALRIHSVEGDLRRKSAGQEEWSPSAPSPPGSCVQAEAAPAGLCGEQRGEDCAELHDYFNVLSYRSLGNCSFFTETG
method: flow cytometry, TIGIT/NFAT Jurkat cells, 10 ug/ml
measure_name: MFI

>>> observed_measurement("43352p1.A11 (scFv, V domains shown) VH: DVQLVESGGGVVRPGESLRLSCAASGFTFSSHAMSWVRQAPGEGLEWVSLTSGNGVSAYYADSVKGRFTISRDNSKNTLYLQMNSLSAEDTAIYYCARGTYLISFFDYWGLGTLVTVSS VL: QSVLTQPPSASGTPGQRVTISCSGISAKIGNNYVSWYQQLPGTAPKLLIYFNNQRPSGVPDRFSGSKSGTSASLAISGLQSEDEADYYCASWDDSLNAWLFGGGTKLTVL")
"8790 MFI"
>>> observed_measurement("43645p1.B2 (scFv, V domains shown) VH: EVQLLESGGGLVQPGGSLRLSCATSGFTFSSYWMSWVRQAPGKGLEWVSGIHISDSTYYADSVKGRFTISRDNSKNTLYLQMNSLRAEDTAVYYCAKGHTVLQYGMDVWGQGTTVTVSS VL: QSGLTQPPSASGTPGQRVTISCSGDISNTRNNYVSWYQQLPGTAPKLLIYGNHQRPSGVPDRFSGSKSATSASLAISGLQSEDEADYHCGTWDNTLNAWVFGGGTKLTVL")
"8950 MFI"
